Reported growth values follow for various compounds
# System: OVCAR-5 ovarian
# method description: NCI-60 one-dose screen, 48 h (100 = growth as untreated, 0 = no growth, -100 = all killed)
# stated conditions: 10 µM
# Procedure: Growth inhibition of the OVCAR-5 human tumor cell line is measured as a screen for anti-cancer activity. Cells are grown in 96 well plates and exposed to the test compound for 48 hours. Compounds are tested at a single concentration, which is 10^-5 M for most compounds. The reported endpoint is percent growth (GI% or GIPRCNT), where numbers from 0 - 100% represent growth inhibition, and numbers from -100% - 0 represent cell death. For example, a value of 40 represents 60% growth inhibition. […]
Compounds without any hit were thinned out: in the full panel of roughly 83,000, 20% have a hit.

compound	growth, %
CC(C)(Cl)CCC1=C(Cl)C(=O)c2ccccc2C1=O	101
COc1cc2nc(Nc3cccc(C(=O)O)c3)nc(N)c2cc1OC	114
O=C(Nc1cccc(-n2cc(-c3ccncc3)c(-c3ccc(O)c(Cl)c3)n2)c1)c1ccc(N2CCOCC2)c(C(F)(F)F)c1	37.8
Cc1ccc(S(=O)(=O)Oc2ccc3c4c(c(=O)oc3c2)CCCCC4)cc1	93.5
Cc1ccc(NC(=O)Nc2nc3ccccc3s2)cc1NC(=O)Nc1nc2ccccc2s1	104
O=C(C[P+](c1ccccc1)(c1ccccc1)c1ccccc1)C[P+](c1ccccc1)(c1ccccc1)c1ccccc1	-94.9
COc1cc(-c2cc(C(=O)N3CCN(C(=O)c4ccccc4NCc4cccs4)CC3)nc3cc(-c4ccccc4)nn23)cc(OC)c1OC	86.6
CCCCN(CCCC)c1cc(C(=O)CCCCCN)c2ccccc2n1	105
CC1(O)CCC2CC3OC3(C)CCC3OC3(C)CCC1C2(C)C (centres undefined)	109
